B1: tRNA (parent)
chain: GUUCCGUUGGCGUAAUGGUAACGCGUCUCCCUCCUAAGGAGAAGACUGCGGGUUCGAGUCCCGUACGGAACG

variants of: B1; test: yeast fitness relative to wild type (ratio to wild type); higher = fitter; tRNA-Arg(CCU), competitive growth, 37 C, YPD
Fewer inactive variants are shown than the library holds.
Could you please report measured yeast fitness for the items listed next?

• G10C U26A A70U = 0.622
• G10C A37C = 0.622
• G6C C61U A70G = 0.554
• G44C C49G U64A = ≤ 0.5
• A37C U47G U53A = 0.535

Provide reported yeast fitness for each item, in the same order as listed.
1. A21U C22G C66U
2. G63A C66A
3. U7C A14G A20C A57G

0.568
0.72
≤ 0.5
